Would you mind telling me the reported EC50, HTRF long substrate of each entry?
- study target: BACE1 (HTRF long substrate and FRET short substrate assays of Example 9D)
- assay text: cell-based or functional assay
Give your result in nM as a bare value.

// sample 5572 (antibody, V domains shown, anti-BACE1 IgG) VH: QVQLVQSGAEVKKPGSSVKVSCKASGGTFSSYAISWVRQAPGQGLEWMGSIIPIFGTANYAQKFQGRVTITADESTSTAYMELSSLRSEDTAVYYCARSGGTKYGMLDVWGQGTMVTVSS VL: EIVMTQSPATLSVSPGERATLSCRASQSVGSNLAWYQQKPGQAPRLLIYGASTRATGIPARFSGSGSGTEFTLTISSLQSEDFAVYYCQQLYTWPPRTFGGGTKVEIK , its EC50, HTRF long substrate was 1.28

GET /value?item= 5880 (antibody, V domains shown, anti-BACE1 IgG) VH: EVQLLESGGGLVQPGGSLRLSCAASGFTFGSYAMTWVRQAPGKGLEWVSAISGSGISTPYADSVKGRFTISRDNSKNTLYLQMNSLRAEDTAVYYCAKGAGHGSYVKGWFDPWGQGTLVTVSS VL: EIVLTQSPATLSLSPGERATLSCRASQSVSSYLAWYQQKPGQAPRLLIYDASNRATGIPARFSGSGSGTDFTLTISSLEPEDFAVYYCQQSVNFPFTFGGGTKVEIK &field=EC50, HTRF long substrate returns 171

Recorded result, 5883 (antibody, V domains shown, anti-BACE1 IgG) VH: QVQLVQSGAEVKKPGSSVKVSCKASGGTFSSYAISWVRQAPGQGLEWMGGIIPIGGGANYAQKFQGRVTITADESTSTAYMELSSLRSEDTAVYYCARSGGTKYGMLDVWGQGTMVTVSS VL: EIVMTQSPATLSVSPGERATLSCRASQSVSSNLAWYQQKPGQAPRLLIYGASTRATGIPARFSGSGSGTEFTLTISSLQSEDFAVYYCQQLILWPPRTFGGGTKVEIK , EC50, HTRF long substrate: 5.93
